assayTarget: Noradrenaline (NA) reuptake (Rattus norvegicus, UniProt Q63380)
Construct: synaptosomes are freshly isolated from areas of rat brain; from tissue; host or cells: rat hypothalamus synaptosomes (P2 fraction)
Sequence (Q63380 1-617): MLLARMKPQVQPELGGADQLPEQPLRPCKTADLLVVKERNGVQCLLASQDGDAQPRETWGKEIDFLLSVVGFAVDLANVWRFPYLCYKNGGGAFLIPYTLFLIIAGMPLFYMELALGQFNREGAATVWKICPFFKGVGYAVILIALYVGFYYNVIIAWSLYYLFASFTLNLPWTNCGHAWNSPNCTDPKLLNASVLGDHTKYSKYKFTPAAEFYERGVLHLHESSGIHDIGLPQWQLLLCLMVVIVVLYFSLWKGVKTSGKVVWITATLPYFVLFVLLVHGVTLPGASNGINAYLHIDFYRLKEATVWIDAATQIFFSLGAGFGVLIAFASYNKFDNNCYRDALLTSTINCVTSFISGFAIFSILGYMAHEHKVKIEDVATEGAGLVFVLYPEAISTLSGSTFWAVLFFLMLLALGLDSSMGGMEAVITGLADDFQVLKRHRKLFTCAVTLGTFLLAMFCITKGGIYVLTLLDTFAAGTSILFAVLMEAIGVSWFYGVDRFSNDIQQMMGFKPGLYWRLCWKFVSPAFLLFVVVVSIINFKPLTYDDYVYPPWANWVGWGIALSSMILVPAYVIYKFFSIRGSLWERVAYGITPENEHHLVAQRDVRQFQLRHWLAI
methodSummary: Noradrenaline (NA) reuptake inhibition in rat brain synaptosomes (hypothalamus, P2 fraction)
Assay type: biochemical
runParameters: read-out: NA reuptake, % inhibition [10 μM]
metricName: inhibition at 10 µM (%)
Your answer is read as %, so omit the unit and give the number.

Record COc1cccc(NC(=O)CC2CCC(C(Cc3ccccc3)N3CCCC3)CC2)c1 (stereo not shown) . Reported inhibition at 10 µM: 54

Record CN(C)C(c1ccccc1)C1CCC(CC=O)CC1 (stereo not shown) . Reported inhibition at 10 µM: 95

Record CN(C)C(c1ccccc1)C1CCC(NC(=O)Nc2ccc(Br)cc2)CC1 (stereo not shown) . Reported inhibition at 10 µM: 97

Record CN(C)C(CCc1ccccc1)C1CCC(C=O)CC1 (stereo not shown) . Reported inhibition at 10 µM: 98

Record CN(C)C(c1ccccc1)C1CCC(NC(=O)Nc2cccc3ccccc23)CC1 (stereo not shown) . Reported inhibition at 10 µM: 94

Record CN(C)C(c1ccccc1)C1CCC(N)CC1 (stereo not shown) . Reported inhibition at 10 µM: 92

Record CN(C)C(CCc1ccccc1)C1CCC(CC=O)CC1 (stereo not shown) . Reported inhibition at 10 µM: 93

Record Cc1noc(C(=O)NCCC2CCC(C(c3ccccc3)N(C)C)CC2)n1 (stereo not shown) . Reported inhibition at 10 µM: 99

Record CN(C)C(c1cccc(F)c1)C1CCC(CCN)CC1 (stereo not shown) . Reported inhibition at 10 µM: 102

Record CN(C)C(c1ccc(F)cc1)C1CCC(CN)CC1 (stereo not shown) . Reported inhibition at 10 µM: 94

* * *

assayTarget: human μ-opiate receptor (Homo sapiens, UniProt P35372)
Sequence (P35372 whole entry): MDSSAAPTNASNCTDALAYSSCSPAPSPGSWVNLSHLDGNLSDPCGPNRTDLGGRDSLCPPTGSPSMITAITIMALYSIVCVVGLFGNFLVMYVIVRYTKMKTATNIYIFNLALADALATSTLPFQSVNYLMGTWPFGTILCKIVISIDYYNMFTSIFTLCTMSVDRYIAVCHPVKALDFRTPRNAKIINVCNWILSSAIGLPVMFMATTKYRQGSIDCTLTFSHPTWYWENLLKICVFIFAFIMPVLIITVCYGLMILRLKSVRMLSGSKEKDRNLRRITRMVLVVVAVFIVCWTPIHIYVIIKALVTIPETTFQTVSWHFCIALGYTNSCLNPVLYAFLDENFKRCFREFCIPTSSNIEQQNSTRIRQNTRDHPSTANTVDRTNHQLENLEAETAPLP
methodSummary: Affinity for the human μ-opiate receptor ([3H]-naloxone displacement, SPA, CHO-K1 membrane preparation)
Type: binding
runParameters: 1 μM test substance; inhibition of specific [3H]-naloxone binding; read-out: μ-Opioid receptor, % inhibition [1 μM]
Where a name gives a salt, the structure may show the parent alone.
Please map values of inhibition at 1 µM to classes as shown: A = under 60%, B = from 60% up to 80%, C = 80% and over

[Q] Any idea which band CN(C)C(c1cccc(F)c1)C1CCC(N)CC1 (centres unmarked) is in?
[A] A

[Q] Any idea which band CN(C)C(c1ccccc1)C1CCC(NCCc2ccccc2)CC1 (centres unmarked) [compound 84, hydrochloride] is in?
[A] C

[Q] Any idea which band CN(C)C(c1ccccc1)C1CCC(NCc2ccc(F)cc2)CC1 (centres unmarked) [compound 91, hydrochloride] is in?
[A] C

Others:
[Q] Any idea which band CN(C)C(c1ccccc1)C1CCC(C=O)CC1 (centres unmarked) is in?
[A] B

[Q] Any idea which band CN(C)C(c1ccc(F)cc1)C1CCC(CO)CC1 (centres unmarked) is in?
[A] A

[Q] Any idea which band CN(C)C(c1ccccc1)C1CCC(NC(=O)Nc2ccc(Br)cc2)CC1 (centres unmarked) is in?
[A] C

* * *

assayTarget: Noradrenaline (NA) reuptake (Rattus norvegicus)
Construct: synaptosomes are freshly isolated from areas of rat brain; from tissue; host or cells: rat hypothalamus synaptosomes (P2 fraction)
methodSummary: Noradrenaline (NA) reuptake inhibition in rat brain synaptosomes (hypothalamus, P2 fraction)
Type: biochemical
runParameters: read-out: NA reuptake, % inhibition [10 μM]
Where a name gives a salt, the structure may show the parent alone.
List of inhibition at 10 µM values.
Your answer is read as %, so omit the unit and give the number.

Record CN(C)C(c1cccc(F)c1)C1CCC(C=O)CC1 (stereo not drawn) [compound 34] . Reported inhibition at 10 µM: 87

Others:
Record CCOC(=O)C=CC1CCC(C(c2ccc(F)cc2)N(C)C)CC1 (stereo not drawn) [compound 135] . Reported inhibition at 10 µM: 90

Record CN(C)C(c1ccccc1)C1CCC(NCCc2c[nH]c3ccccc23)CC1 (stereo not drawn) [compound 83, hydrochloride] . Reported inhibition at 10 µM: 100

Record CC(Cc1c[nH]c2ccccc12)NC1CCC(C(c2ccccc2)N(C)C)CC1 (stereo not drawn) [compound 88, hydrochloride] . Reported inhibition at 10 µM: 84

* * *

assayTarget: human μ-opiate receptor (Homo sapiens, UniProt P35372)
methodSummary: Affinity for the human μ-opiate receptor ([3H]-naloxone displacement, SPA, CHO-K1 membrane preparation)
Type: binding
runParameters: read-out: μ-Opioid receptor, % inhibition [1 μM]
List of inhibition at 1 µM values.
Your answer is read as %, so omit the unit and give the number.

Sample records with inhibition at 1 µM:
Record CC(=O)N(C(C)Cc1c[nH]c2ccccc12)C1CCC(C(c2ccccc2)N(C)C)CC1 (centres unmarked) [compound 178] . Reported inhibition at 1 µM: 96

Record CN(C)C(c1cccs1)C1CCC(CNC(=O)C(c2ccccc2)c2ccccc2)CC1 (centres unmarked) [compound 297] . Reported inhibition at 1 µM: 100

Record Cc1ccc(Oc2ncccc2C(=O)NCC2CCC(C(c3cccs3)N(C)C)CC2)cc1 (centres unmarked) [compound 352] . Reported inhibition at 1 µM: 87

Record CN(C)C(c1ccccc1)C1CCC(CCNC(=O)C2(c3ccc(Cl)cc3)CCCC2)CC1 (centres unmarked) [compound 449] . Reported inhibition at 1 µM: 88

Record COc1ccc(CN(C(C)=O)C2CCC(C(c3ccccc3)N(C)C)CC2)cc1 (centres unmarked) [compound 176] . Reported inhibition at 1 µM: 86

Record COc1c(C(=O)NC2CCC(C(c3ccccc3)N(C)C)CC2)csc1Cl (centres unmarked) [compound 188] . Reported inhibition at 1 µM: 100

Record CCC(C)C(=O)NCC1CCC(C(c2cccc(F)c2)N(C)C)CC1 (single isomer, unassigned) [compound 342] . Reported inhibition at 1 µM: 90

Record CC(Oc1ccccc1)C(=O)NC1CCC(C(c2ccccc2)N(C)C)CC1 (centres unmarked) [compound 230] . Reported inhibition at 1 µM: 86

Others:
Record CN(C)C(c1ccccc1)C1CCC(CNC(=O)c2cccc(C(F)(F)F)c2)CC1 (single isomer, unassigned) [compound 326] . Reported inhibition at 1 µM: 94

Record CN(C)C(c1ccccc1)C1CCC(CCNC(=O)c2cccs2)CC1 (centres unmarked) [compound 452] . Reported inhibition at 1 µM: 99

Record CN(C)C(c1cccs1)C1CCC(CNC(=O)c2cc(F)cc(C(F)(F)F)c2)CC1 (centres unmarked) [compound 308] . Reported inhibition at 1 µM: 98

Record CN(C)C(c1ccccc1)C1CCC(NC(=O)c2cc(C(F)(F)F)ccc2F)CC1 (centres unmarked) [compound 205] . Reported inhibition at 1 µM: 94

* * *

assayTarget: human μ-opiate receptor (Homo sapiens)
methodSummary: Affinity for the human μ-opiate receptor ([3H]-naloxone displacement, SPA, CHO-K1 membrane preparation)
Format: binding
runParameters: 1 μM test substance; inhibition of specific [3H]-naloxone binding; read-out: μ-Opioid receptor, % inhibition [1 μM]
Counter-ions that a name gives are not always drawn.
# cutoff 80% applies to inhibition at 1 µM; >= gives yes (1), < gives no (0)

Example results:
[Q] Has CN(C)C(c1ccccc1)C1CCC(CO)CC1 (stereo not shown) a recorded inhibition at 1 µM greater than or equal to 80%?
[A] no (0)

[Q] Has CN(C)C(c1cccc(F)c1)C1CCC(O)(Cc2ccccc2)CC1 (stereo not shown) a recorded inhibition at 1 µM greater than or equal to 80%?
[A] no (0)

Others:
[Q] Has CCOC(=O)CCC1CCC(C(c2cccc(F)c2)N(C)C)CC1 (stereo not shown) a recorded inhibition at 1 µM greater than or equal to 80%?
[A] yes (1)

[Q] Has CN(C)C(c1ccc(Cl)cc1)C1CCC(O)(c2cccc(F)c2)CC1 (stereo not shown) a recorded inhibition at 1 µM greater than or equal to 80%?
[A] no (0)

[Q] Has CN(C)C(c1cccc(F)c1)C1CCC(O)(CCc2ccccc2)CC1 (stereo not shown) a recorded inhibition at 1 µM greater than or equal to 80%?
[A] yes (1)

[Q] Has CCOC(=O)C=CC1CCC(C(c2ccccc2)N(C)C)CC1 (stereo not shown) a recorded inhibition at 1 µM greater than or equal to 80%?
[A] yes (1)

[Q] Has CN(C)C(CCc1ccccc1)C1CCC(O)CC1 (stereo not shown) a recorded inhibition at 1 µM greater than or equal to 80%?
[A] no (0)

[Q] Has COC(=O)C(Cc1c[nH]c2ccccc12)NC1CCC(C(c2ccccc2)N(C)C)CC1 (single isomer, unassigned) a recorded inhibition at 1 µM greater than or equal to 80%?
[A] yes (1)

[Q] Has CN(C)C(c1ccccc1)C1CCC(O)(Cc2ccc(F)cc2)CC1 (stereo not shown) [compound 148, hydrochloride] a recorded inhibition at 1 µM greater than or equal to 80%?
[A] yes (1)

* * *

assayTarget: human μ-opiate receptor (Homo sapiens)
methodSummary: Affinity for the human μ-opiate receptor ([3H]-naloxone displacement, SPA, CHO-K1 membrane preparation)
Format: binding
runParameters: read-out: μ-Opioid receptor, Ki
Where a name gives a salt, the structure may show the parent alone.
metricName: pKi
// pKi is dimensionless: -log10 of concentration (M)

Sample records with pKi:
Record CN(C)C(c1ccccc1)C1CCC(NC(=O)c2cccc3ccccc23)CC1 (centres unmarked) . Reported pKi: 7.24

Record CN(C)C(c1ccc(Cl)cc1)C1CCC(CCNC(=O)c2ccccc2Br)CC1 (centres unmarked) . Reported pKi: 7.34

Record CN(C)C(c1ccccc1)C1CCC(NC(=O)NCc2ccccc2)CC1 (centres unmarked) . Reported pKi: 8.08

Record CN(C)C(c1cccc(F)c1)C1CCC(CNC(=O)Cc2ccccc2)CC1 (single isomer, unassigned) [compound 319] . Reported pKi: 7.82

Record CN(C)C(c1ccccc1)C1CCC(N(Cc2ccccc2)C(=O)c2ccccc2)CC1 (centres unmarked) [compound 104, hydrochloride] . Reported pKi: 7.85

Others:
Record CN(C)C(c1cccs1)C1CCC(CCNC(=O)c2ccc(F)cc2)CC1 (centres unmarked) . Reported pKi: 8.24

Record CN(C)C(c1cccc(F)c1)C1CCC(CCNC(=O)c2ccccc2Br)CC1 (centres unmarked) . Reported pKi: 7.92

Record CN(C)C(c1ccccc1)C1CCC(CNC(=O)c2cccc(Br)c2)CC1 (centres unmarked) . Reported pKi: 7.96

Record CN(C)C(c1ccccc1)C1CCC(NC(=O)Nc2cccc(C(F)(F)F)c2)CC1 (centres unmarked) [compound 75, hydrochloride] . Reported pKi: 7.01

Record COc1cccc(C(=O)NCCC2CCC(C(c3ccc(F)cc3)N(C)C)CC2)c1 (centres unmarked) . Reported pKi: 6.89

Record Cc1cc(C(=O)NCC2CCC(C(c3ccc(Cl)cc3)N(C)C)CC2)no1 (centres unmarked) . Reported pKi: 7.17

Record CN(C)C(c1ccccc1)C1CCC(NC(=O)c2cccs2)CC1 (single isomer, unassigned) [compound 245] . Reported pKi: 7.18
